- ASSAY COMMENT: Cytotoxicity against peripheral blood lymphocyte cells upto 1 uM by celltiter glo assay
- Format: cell-based
- SETTINGS: human

COMPOUND SMILES	Activity
C=CCN(C(=O)Cc1ccc(F)cc1)C1CCN(CCC2(c3cccc(F)c3)CCN(C(=O)c3cc(S(=O)(=O)NC(C)(C)C)c(F)cc3Cl)CC2)CC1	Non-toxic
C=CCN(C(=O)OCc1ccc(C#N)cc1)C1CCN(CCC2(c3cccc(F)c3)CCN(C(=O)c3cc(S(=O)(=O)NC(C)(C)C)c(F)cc3Cl)CC2)CC1	Non-toxic
C=CCN(C(=O)OCc1ccc(C(F)(F)F)cc1)C1CCN(CCC2(c3cccc(F)c3)CCN(C(=O)c3cc(S(=O)(=O)NC(C)(C)C)c(F)cc3Cl)CC2)CC1	Non-toxic

----------
- System: HOS
- ASSAY COMMENT: Cytotoxicity against HOS cells upto 1 uM by celltiter glo assay
- Type: cell-based
- SETTINGS: human
MEASURED ATTRIBUTE: Activity

Use the examples below as a reference point.
COMPOUND SMILES	Activity
C=CCN(C(=O)Cc1ccc(OC(F)(F)F)cc1)C1CCN(CCC2(c3cccc(F)c3)CCN(C(=O)c3cc(S(=O)(=O)NC(C)(C)C)c(F)cc3Cl)CC2)CC1	Non-toxic
C=CCN(C(=O)OCc1ccc(S(C)(=O)=O)cc1)C1CCN(CCC2(c3cccc(F)c3)CCN(C(=O)c3cc(S(=O)(=O)NC(C)(C)C)c(F)cc3Cl)CC2)CC1	Non-toxic
C=CCN(C(=O)Nc1ccc(C#N)cc1)C1CCN(CCC2(c3cccc(F)c3)CCN(C(=O)c3cc(S(=O)(=O)NC(C)(C)C)c(F)cc3Cl)CC2)CC1	Non-toxic
C=CCN(C(=O)Nc1ccc(C(F)(F)F)cc1)C1CCN(CCC2(c3cccc(F)c3)CCN(C(=O)c3cc(S(=O)(=O)NC(C)(C)C)c(F)cc3Cl)CC2)CC1	Non-toxic
C=CCN(C(=O)NCc1ccc(C#N)cc1)C1CCN(CCC2(c3cccc(F)c3)CCN(C(=O)c3cc(S(=O)(=O)NC(C)(C)C)c(F)cc3Cl)CC2)CC1	Non-toxic

Now take the following molecule into account.
Q: Report Activity for "C=CCN(C(=O)Cc1ccc(C(F)(F)F)cc1)C1CCN(CCC2(c3cccc(F)c3)CCN(C(=O)c3cc(S(=O)(=O)NC(C)(C)C)c(F)cc3Cl)CC2)CC1"
Ans: Non-toxic
